target: p110β/p85α (Homo sapiens); assay: PI3K β inhibition assay (TLC lipid kinase or HTRF); format: biochemical; conditions: read-out: PI3K β IC50
Sequence (P42338 whole entry, looked up): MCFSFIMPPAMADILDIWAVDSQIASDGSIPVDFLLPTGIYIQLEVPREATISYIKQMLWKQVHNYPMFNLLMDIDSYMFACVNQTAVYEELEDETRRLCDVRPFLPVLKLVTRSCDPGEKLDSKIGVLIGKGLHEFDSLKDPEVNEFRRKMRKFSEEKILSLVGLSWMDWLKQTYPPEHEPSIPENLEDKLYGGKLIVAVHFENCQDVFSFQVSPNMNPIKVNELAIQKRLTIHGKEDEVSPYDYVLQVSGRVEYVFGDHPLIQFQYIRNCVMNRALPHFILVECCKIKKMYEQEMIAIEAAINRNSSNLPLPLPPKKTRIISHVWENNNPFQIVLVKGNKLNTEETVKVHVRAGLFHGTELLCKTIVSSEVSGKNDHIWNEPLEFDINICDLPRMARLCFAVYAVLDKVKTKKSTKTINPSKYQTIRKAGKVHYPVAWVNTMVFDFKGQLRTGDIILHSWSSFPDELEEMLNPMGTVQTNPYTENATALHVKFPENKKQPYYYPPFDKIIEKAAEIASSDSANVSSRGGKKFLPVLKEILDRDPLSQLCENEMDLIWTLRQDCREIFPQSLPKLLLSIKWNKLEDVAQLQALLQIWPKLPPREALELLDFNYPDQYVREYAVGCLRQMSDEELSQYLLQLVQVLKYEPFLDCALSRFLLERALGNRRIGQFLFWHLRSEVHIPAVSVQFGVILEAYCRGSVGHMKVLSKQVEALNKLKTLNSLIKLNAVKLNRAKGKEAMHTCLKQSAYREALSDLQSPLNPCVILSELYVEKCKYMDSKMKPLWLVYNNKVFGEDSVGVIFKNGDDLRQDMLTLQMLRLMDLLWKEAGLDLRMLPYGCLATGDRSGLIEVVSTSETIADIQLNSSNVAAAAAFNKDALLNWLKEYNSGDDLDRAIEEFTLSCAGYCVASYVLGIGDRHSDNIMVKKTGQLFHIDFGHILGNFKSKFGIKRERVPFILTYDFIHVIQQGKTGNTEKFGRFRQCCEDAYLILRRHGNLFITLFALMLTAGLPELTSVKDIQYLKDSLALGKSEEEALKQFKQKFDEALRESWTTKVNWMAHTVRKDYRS
pIC50: −log10 of the molar value.
endpoint: pIC50

Lab note: measured pIC50 of CCC(Nc1ncnc2[nH]cnc12)c1cc2ccccc2nc1N1CCN(C)CC1 (centres unmarked) was < 6.00

The compound CC(=O)Nc1nc2ccc(-c3nn(Cc4cc5ccccc5nc4-n4ccnc4C)c4ncnc(N)c34)cc2s1 showed pIC50 equal to < 6.00

Recorded pIC50 (compound Nc1ccnc2c1c(-c1cccc(O)c1)nn2Cc1cc2ccccc2nc1-c1cccnc1 ): < 6.00

// CC(C)N(C)c1nc2ccccc2cc1Cn1nc(-c2cc(O)cc(F)c2)c2c(N)ncnc21 : pIC50 value = 6.00 to 7.00

Entry CN1CCN(c2nc3ccccc3cc2Cn2nc(-c3cc(O)cc(F)c3)c3c(N)ncnc32)CC1 [Compound 197] — recorded pIC50 = 6.00 to 7.00

Looking up Cc1ccccc1-c1nc2ccccc2cc1Cn1nc(-c2cccc(O)c2)c2c(N)ncnc21 , I see its pIC50 listed as < 6.00

Consider Cc1ccccc1-c1nc2ccccc2nc1Cn1nc(-c2cc(O)cc(F)c2)c2c(N)ncnc21 . Its measured pIC50 is < 6.00

Form field pIC50, entry Nc1ncc(-c2nn(Cc3cc4ccccc4nc3-c3ccccc3)c3nccc(N)c23)cn1 : < 6.00

Documented pIC50 of CCn1c(=O)c(Cn2nc(-c3cccc(O)c3)c3c(N)ncnc32)cc2ccccc21 : < 6.00

The compound listed as CCN(CC)c1nc2ccccc2cc1Cn1nc(-c2cc(O)cc(F)c2)c2c(N)ncnc21 shows pIC50 equal to 6.00 to 7.00

Memo: Cc1ccncc1-c1nc2ccccc2cc1Cn1nc(-c2cccc(O)c2)c2c(N)ncnc21 , reported pIC50: < 6.00

Field pIC50 (entry Nc1ncnc2c1c(-c1ccnc(O)c1)nn2Cc1cc2ccccc2nc1-c1ccccc1 ) reads < 6.00

Recorded result, CC(c1cc2ccccc2nc1-c1ccccc1)n1nc(-c2cccc(O)c2)c2c(N)ncnc21 (centres unmarked) , pIC50: < 6.00

Looking up NC1=NC=NC2C1C(c1ccc(O)nc1)=NN2Cc1cc2ccccc2nc1-c1ccccc1 (centres unmarked) , I see its pIC50 listed as < 6.00

Item: Cc1ccccc1-c1nc2ccccc2cc1Cn1nc(-c2ccc3ncnc(N)c3c2)c2c(N)ncnc21 | pIC50: < 6.00

Entry Nc1nc2ccc(-c3nn(Cc4cc5ccccc5nc4N4CCOCC4)c4ncnc(N)c34)cc2s1 — recorded pIC50 = 6.00 to 7.00

Reference source for all entries: patent US9790228B2
